Biological target: AVP-V1 sites (Rattus norvegicus)
Construct: crude membrane preparation of male rat liver (AVP-V1 sites); from tissue; host or cells: male rat liver, crude membranes
Experiment: [^3 H]AVP binding to crude membrane preparation of male rat liver (AVP-V1 sites)
Conditions: read-out: Receptor Binding Results IC50 (nM) [^3 H]-AVP-V1
Protocol: Nonspecific binding (5-10% of the total binding) was determined using 10 μM unlabeled AVP, and the binding reaction was terminated by filtration as described above for the [^3 H]OT binding assay.
Numbered stars: 1 amine (or outer) side, 2 acyl side, 3 side chain; on linkers, the order of the positions; unused ones are H or OH. Square brackets hold non-standard residues; d marks the D form. Peptide text beside a SMILES is read from it. * marks the point of attachment. d1Nal = N[C@H](Cc1cccc2ccccc12)C(=O)O; X12 = O=C([C@@H]1CCCNN1[*:1])[*:2]; X6 = O=C([C@H]1CCCNN1[*:1])[*:2]; dNMeF = CN[C@H](Cc1ccccc1)C(=O)O; dPip = O=C(O)[C@H]1CCCCN1; Boc = CC(C)(C)OC(=O)*
endpoint: IC50 (nM)
Give bare numbers, in nM.

>  <compound>
CC[C@H](C)[C@@H]1NC(=O)[C@@H](Cc2ccccc2)NC(=O)[C@@H]2CCCN2C(=O)[C@@H](Cc2ccccc2)NC(=O)[C@@H]2CCCNN2C(=O)[C@H]2CCCNN2C1=O [Example 96] (cyclo(I[X6][X12][dF]P[dF]))

>  <measurement.unit>
nM

>  <IC50>
2900

$$$$

Consider the record given below.
# IC50 lookup, item CC[C@H](C)[C@@H]1NC(=O)[C@@H](Cc2cccc3ccccc23)NC(=O)[C@@H]2CCCN2C(=O)[C@@H](Cc2ccccc2)N(C)C(=O)[C@H](CCCCNC(=O)OC(C)(C)C)NC(=O)[C@H]2CCCCN2C1=O [Example 139] (cyclo(I[dPip]K(Boc)[dNMeF]P[d1Nal]))
8000

---

Provide the recorded IC50 for the entries that follow.
target: AVP-V1 sites (Rattus norvegicus, UniProt P30560); construct: crude membrane preparation of male rat liver (AVP-V1 sites); from tissue; host or cells: male rat liver, crude membranes; test: [^3 H]AVP binding to crude membrane preparation of male rat liver (AVP-V1 sites); conditions: Receptor Binding Results IC50 (nM) [^3 H]-AVP-V1
Sequence (P30560 whole entry): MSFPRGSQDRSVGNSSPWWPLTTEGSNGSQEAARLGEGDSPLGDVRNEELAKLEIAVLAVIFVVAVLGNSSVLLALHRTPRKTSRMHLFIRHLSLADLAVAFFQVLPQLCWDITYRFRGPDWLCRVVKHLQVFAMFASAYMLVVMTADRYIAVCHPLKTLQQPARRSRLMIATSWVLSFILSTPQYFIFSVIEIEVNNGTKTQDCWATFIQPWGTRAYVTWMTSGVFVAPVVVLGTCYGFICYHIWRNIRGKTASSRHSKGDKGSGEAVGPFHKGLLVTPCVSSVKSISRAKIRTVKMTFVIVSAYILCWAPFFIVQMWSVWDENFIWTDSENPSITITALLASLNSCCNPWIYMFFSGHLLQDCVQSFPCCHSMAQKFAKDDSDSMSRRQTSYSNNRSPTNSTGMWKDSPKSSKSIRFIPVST
Numbered stars: 1 amine (or outer) side, 2 acyl side, 3 side chain; on linkers, the order of the positions; unused ones are H or OH. Square brackets hold non-standard residues; d marks the D form. Peptide text beside a SMILES is read from it. * marks the point of attachment. dPip(4-aza,4-Cbz) = O=C(O)[C@H]1CN(C(=O)OCc2ccccc2)CCN1; X2 = O=C(OCc1ccccc1)N1CCN([*:1])[C@H](C(=O)[*:2])C1; NH(2-(imidazol-4-yl)ethyl) = c1ncc(CCN*)[nH]1; X10 = O=C(O)CN1CCN([*:1])[C@H](C(=O)[*:2])C1; d2Nal = N[C@H](Cc1ccc2ccccc2c1)C(=O)O; dNMeY = CN[C@H](Cc1ccc(O)cc1)C(=O)O; NMeI = CC[C@H](C)[C@H](NC)C(=O)O; Pip(4-aza) = O=C(O)[C@@H]1CNCCN1; dNMeF = CN[C@H](Cc1ccccc1)C(=O)O; dPip(4-aza) = O=C(O)[C@H]1CNCCN1; dOrn = NCCC[C@@H](N)C(=O)O; Pip = O=C(O)[C@@H]1CCCCN1; dPip = O=C(O)[C@H]1CCCCN1; Cbz = O=C(OCc1ccccc1)*; Bn = c1ccc(C*)cc1; OtBu = CC(C)(C)O*

>  <compound>
CC[C@H](C)[C@@H]1NC(=O)[C@@H](Cc2ccccc2)NC(=O)[C@@H]2CCCN2C(=O)[C@@H](Cc2ccccc2)NC(=O)[C@@H]2CN(C(=O)OCc3ccccc3)CCN2C(=O)[C@H]2CN(C(=O)OCc3ccccc3)CCN2C1=O [Example 79] (cyclo(I[dPip(4-aza,4-Cbz)][X2][dF]P[dF]))

>  <IC50>
> 10000 nM

$$$$
>  <compound>
CC[C@H](C)[C@@H]1NC(=O)[C@@H](Cc2ccccc2)NC(=O)[C@@H]2CCCN2C(=O)[C@@H](Cc2ccccc2)NC(=O)[C@@H]2CNCCN2C(=O)[C@H]2CNCCN2C1=O [Example 80] (cyclo(I[dPip(4-aza)][Pip(4-aza)][dF]P[dF]))

>  <IC50>
> 10000 nM

$$$$
>  <compound>
CC[C@H](C)[C@@H]1NC(=O)[C@@H](Cc2ccccc2)NC(=O)[C@@H]2CCCN2C(=O)[C@@H](CCCNC(=O)OCc2ccccc2)NC(=O)[C@@H]2CCCCN2C(=O)[C@H]2CCCCN2C1=O [Example 27] (cyclo(I[dPip][Pip][dOrn](Cbz)P[dF]))

>  <IC50>
10000 nM

$$$$
>  <compound>
CC[C@H](C)[C@@H]1NC(=O)[C@@H](Cc2ccc3ccccc3c2)NC(=O)[C@@H]2CCCN2C(=O)[C@@H](Cc2c[nH]cn2)NC(=O)[C@@H]2CCCCN2C(=O)[C@H]2CCCCN2C1=O [Example 12] (cyclo(I[dPip][Pip][dH]P[d2Nal]))

>  <IC50>
> 1000 nM

$$$$
>  <compound>
CC[C@H](C)[C@@H]1NC(=O)[C@@H](Cc2ccccc2)NC(=O)[C@@H]2CCCN2C(=O)[C@@H](CC(=O)OC(C)(C)C)NC(=O)[C@@H]2CCCCN2C(=O)[C@H]2CCCCN2C1=O [Example 179] (cyclo(I[dPip][Pip][dD](OtBu)P[dF]))

>  <IC50>
> 10000 nM

$$$$
>  <compound>
CC[C@H](C)[C@@H]1NC(=O)[C@@H](Cc2ccccc2)NC(=O)[C@@H]2CCCN2C(=O)[C@@H](Cc2ccccc2)N(C)C(=O)[C@H](CC(=O)NCCc2c[nH]cn2)NC(=O)[C@H]2CCCCN2C1=O [Example 120] (cyclo(D(NH(2-(imidazol-4-yl)ethyl))[dNMeF]P[dF]I[dPip]))

>  <IC50>
10000 nM

$$$$

Each of the following entries comes with a recorded value; kindly state IC50 for each.
1. CC[C@H](C)[C@@H]1NC(=O)[C@@H](Cc2ccccc2)NC(=O)[C@@H]2CCCN2C(=O)[C@@H](Cc2ccccc2)NC(=O)[C@@H]2CCCCN2C(=O)[C@H]2CN(C(=O)OCc3ccccc3)CCN2C1=O [Example 83] (cyclo(I[dPip(4-aza,4-Cbz)][Pip][dF]P[dF]))
2. CC[C@H](C)[C@@H]1NC(=O)[C@@H](Cc2c[nH]c3ccccc23)NC(=O)[C@@H]2CCCN2C(=O)[C@@H](Cc2ccc(OCc3ccccc3)cc2)N(C)C(=O)[C@@H]2CCCCN2C(=O)[C@H]2CCCCN2C1=O [Example 33] (cyclo(I[dPip][Pip][dNMeY](Bn)P[dW]))
3. CC[C@H](C)[C@H]1C(=O)N2CCCC[C@@H]2C(=O)N2CCCC[C@H]2C(=O)N(C)[C@H](Cc2ccccc2)C(=O)N2CCC[C@H]2C(=O)N(C)[C@H](Cc2ccccc2)C(=O)N1C [Example 15] (cyclo([NMeI][dPip][Pip][dNMeF]P[dNMeF]))
4. CC[C@H](C)[C@@H]1NC(=O)[C@@H](Cc2ccc(OC)cc2)NC(=O)[C@@H]2CCCN2C(=O)[C@@H](Cc2ccccc2)N(C)C(=O)[C@H](CCCCN)NC(=O)[C@H]2CCCCN2C1=O [Example 150] (cyclo(I[dPip]K[dNMeF]P[dY](Me)))
5. CC[C@H](C)[C@@H]1NC(=O)[C@@H](Cc2c[nH]c3ccccc23)NC(=O)[C@@H]2CCCN2C(=O)[C@@H](Cc2ccccc2)N(C)C(=O)[C@@H]2CN(CC(=O)O)CCN2C(=O)[C@H]2CCCCN2C1=O [Example 181] (cyclo(I[dPip][X10][dNMeF]P[dW]))

1. 10000 nM
2. > 10000 nM
3. > 10000 nM
4. 10000 nM
5. > 10000 nM

---

Provide the recorded IC50 for the entries that follow.
target: AVP-V2 sites (Rattus norvegicus); construct: male rat liver (AVP-V1 sites) or kidney medulla (AVP-V2 sites); from tissue; host or cells: male rat kidney medulla, crude membranes; assay: [^3 H]AVP binding to crude membrane preparation of male rat kidney medulla (AVP-V2 sites); conditions: read-out: Receptor Binding Results IC50 (nM) [^3 H]-AVP-V2
Sequence (Q00788 whole entry): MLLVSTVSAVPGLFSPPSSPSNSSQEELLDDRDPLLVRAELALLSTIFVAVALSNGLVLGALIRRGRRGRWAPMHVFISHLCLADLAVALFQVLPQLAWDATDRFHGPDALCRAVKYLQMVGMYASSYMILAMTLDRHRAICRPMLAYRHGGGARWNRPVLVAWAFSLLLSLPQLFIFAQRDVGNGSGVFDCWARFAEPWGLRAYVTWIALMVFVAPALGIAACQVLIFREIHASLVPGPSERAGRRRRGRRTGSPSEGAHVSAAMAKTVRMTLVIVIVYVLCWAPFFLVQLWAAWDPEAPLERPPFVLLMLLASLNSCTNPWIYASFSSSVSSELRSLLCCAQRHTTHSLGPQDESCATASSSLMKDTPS
Square brackets hold non-standard residues; d marks the D form. Peptide text beside a SMILES is read from it. * marks the point of attachment. dPiz(1,6-dehydro) = O=C(O)[C@H]1CCC=NN1; d1Nal = N[C@H](Cc1cccc2ccccc12)C(=O)O; d2Nal = N[C@H](Cc1ccc2ccccc2c1)C(=O)O; Pip(4-aza) = O=C(O)[C@@H]1CNCCN1; dNMeF = CN[C@H](Cc1ccccc1)C(=O)O; Pip = O=C(O)[C@@H]1CCCCN1; dPip = O=C(O)[C@H]1CCCCN1; Orn = NCCC[C@H](N)C(=O)O; Boc = CC(C)(C)OC(=O)*
Give bare numbers, in nM.

>  <molecule>
CC[C@H](C)[C@@H]1NC(=O)[C@@H](Cc2c[nH]c3ccccc23)NC(=O)[C@@H]2CCCN2C(=O)[C@@H](Cc2ccccc2)N(C)C(=O)[C@@H]2CCCCN2C(=O)[C@H]2CCCCN2C1=O [Example 30] (cyclo(I[dPip][Pip][dNMeF]P[dW]))

>  <IC50 [nM]>
747

$$$$
>  <molecule>
CC[C@H](C)[C@@H]1NC(=O)[C@@H](Cc2cccc3ccccc23)NC(=O)[C@@H]2CCCN2C(=O)[C@@H](Cc2ccccc2)N(C)C(=O)[C@H](CCCCNC(=O)OC(C)(C)C)NC(=O)[C@H]2CCCCN2C1=O [Example 139] (cyclo(I[dPip]K(Boc)[dNMeF]P[d1Nal]))

>  <IC50 [nM]>
8000

$$$$
>  <molecule>
CC[C@H](C)[C@@H]1NC(=O)[C@@H](Cc2c[nH]c3ccccc23)NC(=O)[C@@H]2CCCN2C(=O)[C@@H](Cc2ccccc2)N(C)C(=O)[C@@H]2CNCCN2C(=O)[C@H]2CCC=NN2C1=O [Example 170] (cyclo(I[dPiz(1,6-dehydro)][Pip(4-aza)][dNMeF]P[dW]))

>  <IC50 [nM]>
175

$$$$
>  <molecule>
CC[C@H](C)[C@@H]1NC(=O)[C@@H](Cc2ccc3ccccc3c2)NC(=O)[C@@H]2CCCN2C(=O)[C@@H](Cc2ccccc2)N(C)C(=O)[C@@H]2CNCCN2C(=O)[C@H]2CCCCN2C1=O [Example 171] (cyclo(I[dPip][Pip(4-aza)][dNMeF]P[d2Nal]))

>  <IC50 [nM]>
335

$$$$
>  <molecule>
CC[C@H](C)[C@@H]1NC(=O)[C@@H](Cc2ccc3ccccc3c2)NC(=O)[C@@H]2CCCN2C(=O)[C@@H](Cc2c[nH]cn2)NC(=O)[C@@H]2CNCCN2C(=O)[C@H]2CCCCN2C1=O [Example 159] (cyclo(I[dPip][Pip(4-aza)][dH]P[d2Nal]))

>  <IC50 [nM]>
690

$$$$

Each of the following entries comes with a recorded value; kindly state IC50 for each.
1. CC[C@H](C)[C@@H]1NC(=O)[C@@H](Cc2c[nH]c3ccccc23)NC(=O)[C@@H]2CCCN2C(=O)[C@@H](Cc2ccccc2)N(C)C(=O)[C@@H]2CNCCN2C(=O)[C@H]2CCCCN2C1=O [Example 92] (cyclo(I[dPip][Pip(4-aza)][dNMeF]P[dW]))
2. CC[C@H](C)[C@@H]1NC(=O)[C@@H](Cc2ccccc2)NC(=O)[C@@H]2CCCN2C(=O)[C@@H](Cc2ccccc2)N(C)C(=O)[C@H](CCCNC(=O)OC(C)(C)C)NC(=O)[C@H]2CCC=NN2C1=O [Example 124] (cyclo(I[dPiz(1,6-dehydro)][Orn](Boc)[dNMeF]P[dF]))

750
3600
